protocol-details: Pharmacokinetic study of 435(S) and other representative compounds in chimps after oral dosing (Example 40)
Assay type: in vivo
study-conditions: male, plasma, po, 65 mg, Table 17 i): male chimp, 435(S) and 121(S), species named in label measured in plasma, read-out: AUC0-12 Male
The entries below are paired with their reported AUC(0-t).

{"compound": "[2H]c1nc2c(c(=O)n(CCCC([2H])([2H])[C@@]([2H])(O)C([2H])([2H])[2H])c(=O)n2C)n1C([2H])([2H])[2H] [Compound 435(S)]", "AUC(0-t) (ng·h/mL)": 354}
{"compound": "[2H]c1nc2c(c(=O)n(CCCC(=O)O)c(=O)n2C)n1C([2H])([2H])[2H] [Deuterated M5 (M5a)]", "AUC(0-t) (ng·h/mL)": 585}
{"compound": "[2H]C([2H])([2H])[C@H](O)C([2H])([2H])CCCn1c(=O)c2c(ncn2C)n(C)c1=O [Compound 121(S)]", "AUC(0-t) (ng·h/mL)": 304}

###

protocol-details: Pharmacokinetic study of 435(S) and other representative compounds in chimps after oral dosing (Example 40)
Type: in vivo
study-conditions: female, plasma, po, 65 mg, Table 17 ii): female chimp, 435(S) and 137(S), species named in label measured in plasma, read-out: AUC0-12 Female

{"compound": "[2H]C([2H])([2H])[C@]([2H])(O)C([2H])([2H])CCCn1c(=O)c2c(ncn2C)n(C)c1=O [Compound 137(S)]", "AUC(0-t), ng·h/mL": 163}
{"compound": "[2H]c1nc2c(c(=O)n(CCCC(=O)O)c(=O)n2C)n1C([2H])([2H])[2H]", "AUC(0-t), ng·h/mL": 754}
{"compound": "[2H]c1nc2c(c(=O)n(CCCC([2H])([2H])[C@@]([2H])(O)C([2H])([2H])[2H])c(=O)n2C)n1C([2H])([2H])[2H] [Compound 435(S)]", "AUC(0-t), ng·h/mL": 243}

###

protocol-details: Pharmacokinetic study of pentoxifylline and Compound 435(S) in chimps after intravenous dosing (Example 38)
Type: in vivo
study-conditions: female chimp, IV infusion 75 mg each of pentoxifylline and 435(S) over 10 minutes; species named in label measured in plasma; read-out: AUC0-∞ Female
endpoint: AUC(0-inf) (ng·h/mL)

{"compound": "[2H]c1nc2c(c(=O)n(CCCC(=O)O)c(=O)n2C)n1C([2H])([2H])[2H] [Deuterated M5 (M5a)]", "endpoint": "AUC(0-inf)", "quantitative-result": 632}
{"compound": "[2H]c1nc2c(c(=O)n(CCCC([2H])([2H])[C@@]([2H])(O)C([2H])([2H])[2H])c(=O)n2C)n1C([2H])([2H])[2H] [Compound 435(S)]", "endpoint": "AUC(0-inf)", "quantitative-result": 1210}

###

protocol-details: Pharmacokinetic study of pentoxifylline and Compound 435(S) in chimps after oral dosing (Example 38)
Format: in vivo
study-conditions: female chimp, oral gavage 75 mg each of pentoxifylline and 435(S) as 1:1 mixture; species named in label measured in plasma; read-out: AUC0-∞ Female
Procedure: Pentoxifylline and Compound 435(S) were separately dissolved in warm (65° C.) saline at a concentration at 10 mg/mL. A 1:1 mixture of the two compounds was then prepared containing a final concentration of 5 mg/mL of each compound and the mixture was then sterile filtered through a 0.2-μm filter. Two chimps (one male and one female) were used in each of the oral and intravenous studies. Animals were fasted overnight prior to administration of compounds. […]

{"molecule": "[2H]c1nc2c(c(=O)n(CCCC(=O)O)c(=O)n2C)n1C([2H])([2H])[2H] [Deuterated M5 (M5a)]", "AUC(0-inf), ng·h/mL": 606}
{"molecule": "[2H]c1nc2c(c(=O)n(CCCC([2H])([2H])[C@@]([2H])(O)C([2H])([2H])[2H])c(=O)n2C)n1C([2H])([2H])[2H] [Compound 435(S)]", "AUC(0-inf), ng·h/mL": 672}

###

protocol-details: Pharmacokinetic study of 435(S) and other representative compounds in chimps after oral dosing (Example 40)
Format: in vivo
study-conditions: male, plasma, po, 65 mg, Table 17 iii): male chimp, 435(S) and 421(S), species named in label measured in plasma, read-out: AUC0-12 Male

{"compound": "[2H]c1nc2c(c(=O)n(CCCC([2H])([2H])[C@@]([2H])(O)C([2H])([2H])[2H])c(=O)n2C)n1C([2H])([2H])[2H] [Compound 435(S)]", "AUC(0-t) (ng·h/mL)": 881}
{"compound": "[2H]c1nc2c(c(=O)n(CCCC([2H])([2H])[C@@H](O)C([2H])([2H])[2H])c(=O)n2C)n1C [Compound 421(S)]", "AUC(0-t) (ng·h/mL)": 743}
{"compound": "[2H]c1nc2c(c(=O)n(CCCC(=O)O)c(=O)n2C)n1C", "AUC(0-t) (ng·h/mL)": 447}
{"compound": "[2H]c1nc2c(c(=O)n(CCCC(=O)O)c(=O)n2C)n1C([2H])([2H])[2H]", "AUC(0-t) (ng·h/mL)": 500}

###

The entries below are paired with their reported AUC(0-inf).
protocol-details: Pharmacokinetic study of pentoxifylline and Compound 435(S) in chimps after intravenous dosing (Example 38)
Format: in vivo
study-conditions: male chimp, IV infusion 75 mg each of pentoxifylline and 435(S) over 10 minutes; species named in label measured in plasma; read-out: AUC0-∞ Male
endpoint: AUC(0-inf)

{"compound": "[2H]c1nc2c(c(=O)n(CCCC([2H])([2H])[C@@]([2H])(O)C([2H])([2H])[2H])c(=O)n2C)n1C([2H])([2H])[2H] [Compound 435(S)]", "result": "2520 ng·h/mL"}
{"compound": "[2H]c1nc2c(c(=O)n(CCCC(=O)O)c(=O)n2C)n1C([2H])([2H])[2H]", "result": "428 ng·h/mL"}

###

protocol-details: Stability of compounds in rat whole blood (Example 35)
Type: in vitro ADME
study-conditions: 5 μM, 37° C., 2 hours, FIG. 3
endpoint: Keto-compound (pentoxifylline or Compound 409) formed from M-1 alcohol

{"molecule": "[2H]c1nc2c(c(=O)n(CCCC([2H])([2H])[C@@]([2H])(O)C([2H])([2H])[2H])c(=O)n2C)n1C([2H])([2H])[2H] [Compound 435(S)]", "result": "not detected"}
{"molecule": "[2H]c1nc2c(c(=O)n(CCCC([2H])([2H])[C@]([2H])(O)C([2H])([2H])[2H])c(=O)n2C)n1C([2H])([2H])[2H] [Compound 435(R)]", "result": "not detected"}

###

protocol-details: Pharmacokinetic study of 435(S) and other representative compounds in chimps after oral dosing (Example 40)
Type: in vivo
study-conditions: male, plasma, po, 65 mg, Table 17 iv): male chimp, 435(S) and 437(S), species named in label measured in plasma, read-out: AUC0-12 Male
endpoint: AUC(0-t) (ng·h/mL)

{"compound": "[2H]c1nc2c(c(=O)n(CCCC(=O)O)c(=O)n2C)n1C([2H])([2H])[2H]", "unit-symbol": "ng·h/mL", "quantitative-result": 562}
{"compound": "[2H]c1nc2c(c(=O)n(CCCC([2H])([2H])[C@@]([2H])(O)C([2H])([2H])[2H])c(=O)n2C)n1C [Compound 437(S)]", "unit-symbol": "ng·h/mL", "quantitative-result": 757}
{"compound": "[2H]c1nc2c(c(=O)n(CCCC([2H])([2H])[C@@]([2H])(O)C([2H])([2H])[2H])c(=O)n2C)n1C([2H])([2H])[2H] [Compound 435(S)]", "unit-symbol": "ng·h/mL", "quantitative-result": 686}

###

protocol-details: Pharmacokinetic study in rats of (S)-M1 and Compound 435(S) after oral dosing (Example 37)
Assay type: in vivo, male Sprague-Dawley rats
study-conditions: male, Sprague-Dawley, rat, oral gavage single 5 mg/kg dose, 1:1 mixture of (S)-M1 and 435(S), species named in label measured in plasma, read-out: Cmax

{"compound": "[2H]c1nc2c(c(=O)n(CCCC([2H])([2H])[C@@]([2H])(O)C([2H])([2H])[2H])c(=O)n2C)n1C([2H])([2H])[2H] [Compound 435(S)]", "Cmax / ng/mL": 4100}

Reference for the values: patent US8263601B2
